Origin of the recorded values: patent US20210403435A1

System: Echinochloa crus-galli (ECHCG)
Experiment: Post-emergence efficacy, glasshouse, evaluated after 13 days
Type: in vivo
Conditions: Echinochloa crus-galli, 312 h; post-emergence application, 500 g/Ha, evaluated after 13 days; read-out: Control of weed species ECHCG (100=total damage to plant; 0=no damage to plant)
Known pest or weed control at 500 g/ha of a selection of compounds
OUTCOME_MEASURE: pest or weed control at 500 g/ha

* CCNC(=O)c1cc[n+](CC[C@H](N)C(=O)O)nc1 | 0%
* C=CCNC(=O)c1cc[n+](CCNS(=O)(=O)[O-])nc1 | 70%
* CC#CCNC(=O)c1cc[n+](CCC(=O)O)nc1 | 100%
* O=C(O)CC[n+]1ccc(C(=O)NC2CSC2)cn1 | 100%
* COCCNC(=O)c1cc[n+](CCC(=O)O)nc1 | 90%
* CN(C)S(=O)(=O)CCNC(=O)c1cc[n+](CCC(=O)O)nc1 | 50%
* O=C(O)CC[n+]1ccc(C(=O)NC2CCCCC2)cn1 | 20%
* O=C(O)CC[n+]1ccc(C(=O)N2CCOCC2)cn1 | 90%
* CCNC(=O)c1cc[n+](CCNS(=O)(=O)C(F)(F)F)nc1 | 80%
* O=C(NCCO)c1cc[n+](CCS(=O)(=O)[O-])nc1 | 80%
* CC(C)CNC(=O)c1cc[n+](CCS(=O)(=O)[O-])nc1 | 50%
* C=CCNC(=O)c1cc[n+](CCS(=O)(=O)[O-])nc1 | 90%
* Cn1nccc1NC(=O)c1cc[n+](CCC(=O)O)nc1 | 40%
* C#CCNC(=O)c1cc[n+](CCS(=O)(=O)[O-])nc1 | 90%
* O=C(O)CC[n+]1ccc(C(=O)N2CC[S+]([O-])CC2)cn1 | 70%
* CNC(=O)c1cc[n+](CCS(=O)(=O)[O-])nc1-c1ccccc1 | 40%
* CN1CCN(C(=O)c2cc[n+](CCC(=O)O)nc2)CC1 | 60%
* O=C(O)CC[n+]1ccc(C(=O)Nc2ccc(F)cc2F)cn1 | 10%
* CNC(=O)c1cc[n+](CCC(=O)O)nc1-c1ccccc1 | 80%
* O=C(NC1CC1)c1cc[n+](CCS(=O)(=O)[O-])nc1 | 40%
* CC(C#N)NC(=O)c1cc[n+](CCC(=O)O)nc1 (stereo not drawn) | 90%
* CC(C)N(C(=O)c1cc[n+](CCC(=O)O)nc1)C(C)C | 30%
* O=C(O)CC[n+]1ccc(C(=O)NCC(F)(F)C(F)(F)F)cn1 | 60%
* O=C(O)CC[n+]1ccc(C(=O)NCc2ccc(C(F)(F)F)cc2)cn1 | 50%
* CC(C)(C)NC(=O)c1cc[n+](CCS(=O)(=O)O)nc1 | 60%
* N#Cc1ccc(CNC(=O)c2cc[n+](CCC(=O)O)nc2)cc1 | 20%
* CCNC(=O)c1cc[n+](C(C)CC(=O)O)nc1 (stereo not drawn) | 50%
* CCNC(=O)c1cc[n+](CC(C)(C)C(=O)O)nc1 | 90%
* CC(O)CNC(=O)c1cc[n+](CCC(=O)O)nc1 (stereo not drawn) | 40%
* O=C(Nc1ccccc1O)c1cc[n+](CCS(=O)(=O)[O-])nc1 | 20%
* COCCNC(=O)c1cc[n+](CCNS(=O)(=O)[O-])nc1 | 70%
* COC(=O)CC[n+]1ccc(C(=O)Nc2nccs2)cn1 | 10%
* O=C(NCC(F)(F)F)c1cc[n+](CCS(=O)(=O)[O-])nc1 | 30%
* CCCNC(=O)c1cc[n+](CCS(=O)(=O)[O-])nc1 | 60%
* CCSCCNC(=O)c1cc[n+](CCC(=O)O)nc1 | 50%
* O=C(O)CC[n+]1ccc(C(=O)NCc2ccccn2)cn1 | 70%
* CN(C)C(=O)c1cc[n+](CCC(=O)O)nc1 | 70%
* CN(C)C(=O)c1cn[n+](CCS(=O)(=O)O)cc1-c1ccccc1 | 50%
* O=C(NCc1ccc(F)cc1)c1cc[n+](CCS(=O)(=O)[O-])nc1 | 70%
